Please go through the items and note down their IC50.
Target: KRas^G12V (Homo sapiens, UniProt P01116, G12V)
Construct: Biotinylated KRas (corresponding to amino acids 1-169, produced at Accelegan Inc.); biotin (biotinylated); purchased Accelegan Inc
Sequence (P01116 1-169 isoform P01116-2 G12V): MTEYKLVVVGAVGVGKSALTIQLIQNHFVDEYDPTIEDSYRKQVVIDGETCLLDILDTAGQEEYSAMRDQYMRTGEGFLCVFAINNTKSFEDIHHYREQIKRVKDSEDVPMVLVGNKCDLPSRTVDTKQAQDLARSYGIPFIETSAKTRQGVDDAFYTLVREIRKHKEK
Experiment: KRas binding assay (TR-FRET tracer displacement), KRas G12V
Reply with the number and its unit after it.

The examples below pair each entry with its known result.
[[record]]
compound = "Oc1cc2ccccc2c(-c2ncc3c(N4C[C@@H]5C[C@H](C4)[C@H](O)C5)nc(OC[C@@]45CCCN4C[C@H](F)C5)nc3c2F)c1F"
tgt = "KRas^G12V (Homo sapiens, UniProt P01116, G12V)"
parameter_measured = "IC50"
assay_value = "93 nM"

[[record]]
compound = "CCc1c(F)ccc2cc(O)cc(-c3ncc4c(N5CC6CCC(C(=O)N(C)C)(C6)C5)nc(OC[C@@]56CCCN5C[C@H](F)C6)nc4c3F)c12 (stereo partly drawn)"
tgt = "KRas^G12V (Homo sapiens, UniProt P01116, G12V)"
parameter_measured = "IC50"
assay_value = "4 nM"

[[record]]
compound = "CCc1c(F)ccc2cc(O)cc(-c3ncc4c(N5Cc6n[nH]c(CO)c6C5)nc(OC[C@@]56CCCN5C[C@H](F)C6)nc4c3F)c12"
tgt = "KRas^G12V (Homo sapiens, UniProt P01116, G12V)"
parameter_measured = "IC50"
assay_value = "435 nM"

[[record]]
compound = "CCc1c(F)ccc2cc(O)cc(-c3ncc4c(NS(=O)(=O)C5CCCNCC5)nc(OC[C@@]56CCCN5C[C@H](F)C6)nc4c3F)c12 (stereo partly drawn)"
tgt = "KRas^G12V (Homo sapiens, UniProt P01116, G12V)"
parameter_measured = "IC50"
assay_value = "1200 nM"

[[record]]
compound = "CCc1cccc2cc3[nH]ncc3c(-c3ncc4c(N5C[C@@H]6C[C@H](C5)[C@H](O)C6)nc(OC[C@@]56CCCN5C[C@H](F)C6)nc4c3F)c12"
tgt = "KRas^G12V (Homo sapiens, UniProt P01116, G12V)"
parameter_measured = "IC50"
assay_value = "5 nM"


Shift focus to the following entry.
For the compound shown here, `CCc1c(F)ccc2cc(O)cc(-c3ncc4c(N5CCCn6nc(S(=O)(=O)N(C)C)cc6C5)nc(OC[C@@]56CCCN5C[C@H](F)C6)nc4c3F)c12` , give the reported IC50.
8 nM
